system.under.test: Proto-oncogene tyrosine-protein kinase receptor Ret [G810S] (Homo sapiens, UniProt P07949, G810S)
Sequence (P07949 29-1114 G810S limits assumed): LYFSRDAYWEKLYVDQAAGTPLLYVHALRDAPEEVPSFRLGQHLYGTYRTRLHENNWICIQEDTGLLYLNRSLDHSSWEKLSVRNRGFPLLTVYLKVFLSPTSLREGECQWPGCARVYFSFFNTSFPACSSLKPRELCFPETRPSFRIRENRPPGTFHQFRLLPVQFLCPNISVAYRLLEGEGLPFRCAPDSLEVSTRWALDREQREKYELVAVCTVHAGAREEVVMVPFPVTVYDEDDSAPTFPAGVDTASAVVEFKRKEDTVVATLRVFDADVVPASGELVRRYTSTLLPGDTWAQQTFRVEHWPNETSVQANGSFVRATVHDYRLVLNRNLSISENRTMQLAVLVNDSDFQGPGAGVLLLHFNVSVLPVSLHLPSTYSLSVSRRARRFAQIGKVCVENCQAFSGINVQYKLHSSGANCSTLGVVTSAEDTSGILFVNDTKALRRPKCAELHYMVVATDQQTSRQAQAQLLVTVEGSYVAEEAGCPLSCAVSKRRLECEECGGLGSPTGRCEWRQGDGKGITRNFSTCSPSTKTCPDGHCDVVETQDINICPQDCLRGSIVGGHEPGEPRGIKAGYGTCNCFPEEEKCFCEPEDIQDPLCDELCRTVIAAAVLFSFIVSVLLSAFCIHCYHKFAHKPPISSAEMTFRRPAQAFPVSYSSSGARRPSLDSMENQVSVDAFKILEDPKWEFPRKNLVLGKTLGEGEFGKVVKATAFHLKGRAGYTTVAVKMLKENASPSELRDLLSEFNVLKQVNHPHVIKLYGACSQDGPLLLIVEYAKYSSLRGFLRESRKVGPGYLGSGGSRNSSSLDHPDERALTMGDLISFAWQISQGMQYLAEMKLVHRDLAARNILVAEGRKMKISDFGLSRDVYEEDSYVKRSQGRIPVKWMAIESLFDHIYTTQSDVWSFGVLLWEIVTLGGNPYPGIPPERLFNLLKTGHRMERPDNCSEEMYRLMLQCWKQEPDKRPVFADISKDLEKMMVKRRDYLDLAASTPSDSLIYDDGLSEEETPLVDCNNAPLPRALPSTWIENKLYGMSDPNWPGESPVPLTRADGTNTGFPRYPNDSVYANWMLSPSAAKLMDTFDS
assay.text: RET Enzyme Assay
pIC50: −log10 of the molar value.
Listed here are compounds together with their documented pIC50.

stdin: Give the reported pIC50 for this compound. CC1(n2nc(-c3ccc(CC(=O)Nc4cc(C56CC(F)(C5)C6)no4)c(F)c3F)c(C(N)=O)c2N)CC1
stdout: > 6.82

stdin: Give the reported pIC50 for this compound. CC(C)n1nc(-c2ccc(CC(=O)Nc3cc(-c4ccc(Cl)cc4Cl)no3)cn2)c(C(N)=O)c1N
stdout: > 6.82

stdin: Give the reported pIC50 for this compound. CC(C)n1nc(-c2ccc(CC(=O)Nc3cc(-c4ccc(Cl)cc4Cl)no3)nc2)c(C(N)=O)c1N
stdout: > 6.82
